Biological target: FPRL-1 (Homo sapiens)
Sequence (P25090 1-351): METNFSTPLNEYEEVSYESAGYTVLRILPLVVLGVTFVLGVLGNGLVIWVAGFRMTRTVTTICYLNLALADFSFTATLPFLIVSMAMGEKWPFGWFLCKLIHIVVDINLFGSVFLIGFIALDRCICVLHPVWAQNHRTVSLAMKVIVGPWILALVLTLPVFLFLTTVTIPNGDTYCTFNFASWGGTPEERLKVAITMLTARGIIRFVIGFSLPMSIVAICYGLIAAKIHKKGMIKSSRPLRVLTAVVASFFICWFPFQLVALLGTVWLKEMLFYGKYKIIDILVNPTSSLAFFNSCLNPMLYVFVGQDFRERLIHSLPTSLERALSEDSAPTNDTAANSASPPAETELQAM
Assay: compound-induced calcium activity on FLIPR Tetra in CHO-Gα16 cells stably expressing FPRL1
Details: tested 0.61 to 10,000 nM, read-out: FPRL-1 Ga16-CHO EC50
Readings of log10 of EC50 for the listed compounds
On a log10 scale: recorded EC50, unit nM.

CC(C)C[C@H](NC(=O)Nc1ccc([S+](C)[O-])cc1)C(=O)NCC(=O)O (stereo partly shown) [Compound 77]    2.55
CC(C)C[C@H](NC(=O)Nc1ccc(Br)cc1)C(=O)N[C@H](C(N)=O)C(C)C [Compound 46]    0.11
CC(C)(NC(=O)Nc1ccc(Br)cc1)C(=O)NCC(=O)O [Compound 60]    2.68
CC(C)C[C@H](NC(=O)Nc1ccc(Br)cc1)C(=O)N[C@H](C(N)=O)c1ccccc1 [Compound 54]    1.92
CC(C)(C)OC(=O)CCNC(=O)[C@H](Cc1ccccc1)NC(=O)Nc1ccc(Br)cc1 [Compound 8]    2.41
CCC(CC)(NC(=O)Nc1ccc(Br)cc1)C(=O)NCC(=O)OC(C)(C)C [Compound 57]    1.49
CC(C)C[C@H](NC(=O)Nc1ccc(Br)cc1)C(=O)N[C@H](C(=O)OC(C)(C)C)C(C)C [Compound 42]    1.83
CC(=O)CNC(=O)[C@H](CC(C)C)NC(=O)Nc1ccc(Br)cc1 [Compound 27]    0.67
CC(C)C[C@H](NC(=O)Nc1ccc([S+](C)[O-])cc1)C(=O)NCC(=O)OC(C)(C)C (stereo partly shown) [Compound 75]    2.82
CCC[C@H](NC(=O)Nc1ccc(Br)cc1F)C(=O)NCC(N)=O [Compound 31]    0.72

Endpoint output: log10 of EC50 of CCC[C@H](NC(=O)Nc1ccc(Br)cc1)C(=O)NCC(N)=O [Compound 30] . Value? 0.40

Thanks! And CCC[C@H](NC(=O)Nc1ccc(Br)cc1F)C(=O)NCC(=O)OC(C)(C)C ? 1.92

Thanks! And CCC[C@H](NC(=O)Nc1ccc(Br)cc1)C(=O)NCCO [Compound 20] ? 1.58

Thanks! And CC(C)C[C@@H](NC(=O)Nc1ccc(Br)cc1)C(=O)NC(C)(C)C(=O)O [Compound 87] ? 2.69

Thanks! And CCC[C@H](NC(=O)[C@H](CC(C)C)NC(=O)Nc1ccc(Br)cc1)C(=O)O [Compound 51] ? 0.00

Thanks! And CC(C)C[C@H](NC(=O)Nc1ccc(Br)cc1)C(=O)N[C@@H](C)C(N)=O [Compound 45] ? 1.38

Thanks! And CC(C)C[C@H](NC(=O)Nc1ccc(Br)cc1)C(=O)NC(C)(C)C(=O)OC(C)(C)C [Compound 73] ? 2.12
